meta.source: paper PMC12464775

Target: T1, extracellular domain (ECD) of the human RNF43 protein, biotinylated (human, UniProt Q68DV7 24-197, biotin (EZ-link-NHS-PEG4-biotin), 1–2 biotin molecules per protein)
T1 chain: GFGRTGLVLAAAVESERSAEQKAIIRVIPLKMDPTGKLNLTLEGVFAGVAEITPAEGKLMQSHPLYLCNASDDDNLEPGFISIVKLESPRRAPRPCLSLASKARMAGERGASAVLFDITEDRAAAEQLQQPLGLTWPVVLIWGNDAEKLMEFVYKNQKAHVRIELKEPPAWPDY
Experiment: SPR
result-type: pKd
Remember, pKd is on a log scale: it is -log10 of the molar concentration.

Look over these answered cases.
1. EQCTSTQDLCHDYSHVCCWPLDCRWAVKYQWFWDCIG (designed binder) [GUR-1.6.12.2]    8.96
2. QCVKKDELCIPYYLDCCEPLECRWAVKYQWFWDCIG (designed binder) [GUR-1.6]    7.04

Now consider the entry below.
// pKd value for QCVKKDELCIPYYLDCCWPLDCRWAVKYQWFWDCIG (designed binder) [GUR-1.6.12] : 7.25
